Here, each record is paired with measured z-score data.
assay: adipocyte viability effects, profiling panel, cell-based, 3T3-L1 adipocytes, calcein-AM fluorescence, 48 h, basal (AID 1163); settings: 3T3-L1 adipocytes viability, higher = more signal; note: test concentration not given here
property: z-score

compound=C=CCNC(=O)[C@H]1[C@@H]2C(=O)O[C@@H](c3ccccc3)[C@@H](c3ccccc3)N2[C@@H](c2ccc(O)cc2)[C@]12C(=O)Nc1ccc(C#CC3=CCCCC3)cc12 result=-0.826
compound=COCCCNC(=O)[C@@H]1c2ccccc2C(=O)N(Cc2cc(C(F)(F)F)cc(C(F)(F)F)c2)[C@H]1c1ccc(CO)cc1 result=-0.458
compound=COc1ccc(CC[C@H](O)c2cccc(OCC(=O)OC(C)(C)C)c2)cc1 result=0.71
compound=CCCCC(=C=CC[C@H](O)c1ccc(OCCO)cc1)C[C@H](O)c1ccccn1 result=-0.398
compound="CC=CC(O)C1C=CC2C(=O)N(C)C(=O)C2N1NC(=O)OC(C)(C)C (centres undefined)" result=-0.604
compound=C=C(CCCC)C(=O)CC[C@H](OC(C)=O)c1ccccc1OCCO result=1.66
compound=COCCOC(=O)N1C(=O)[C@@]2(c3cc(C#CC4(O)CCCCCC4)ccc31)[C@H](C(=O)NC[C@H](O)c1ccccc1)[C@H]1C(=O)O[C@H](c3ccccc3)[C@H](c3ccccc3)N1[C@@H]2c1ccc(O)cc1 result=-0.111
compound=CCCC[C@@H](O)C1=C(COC)Cn2c(=O)n(-c3ccccc3)c(=O)n2[C@H]1CO result=0.122
compound=C=C(COC)C(=O)CC[C@@H](OC(C)=O)c1ccc(OCCO)cc1 result=0.327
compound="N#Cc1ccc(C(O)C2C=CC3C(=O)NC(=O)C3N2Nc2ccccn2)cc1 (centres undefined)" result=-0.239
compound=CN(C)C(=O)[C@@]1(CCS(=O)(=O)c2ccccc2)N=C(c2ccc(OCCCO)cc2)O[C@H]1c1ccccc1N=[N+]=[N-] result=-0.471
compound=C[N+](C)(C)CCCC[C@@H]1NC(=O)[C@H]2C[C@@H](C(=O)NCCCCCNC(=O)CS)[C@@H](c3ccc(O)cc3)N2C1=O result=-0.464
compound="CC[C@H](C)C(=O)O[C@H]1CC[C@]2(C)C3=C(CCC2C1(C)C)[C@]1(C)CC[C@H]([C@H](C)CCCC(C)C)[C@@]1(C)CC3 (some centres undefined)" result=0.265
compound=CC(C)C[C@@H]1NC(=O)[C@@H]2C[C@H](C(=O)O)[C@H](c3ccc(O)cc3)N2C1=O result=0.37
compound=COc1ccc(NC(=O)O[C@H]2[C@H](OC(=O)Nc3ccc4c(c3)OCO4)[C@H](OC(=O)Nc3ccc4c(c3)OCO4)[C@@H](OC)O[C@@H]2CO)cc1 result=0.568
compound=COC(=O)[C@]1(CO)N=C(c2ccc(OCCCO)cc2)O[C@@H]1c1ccccc1CN=[N+]=[N-] result=0.131
compound=CC(C)[Si](C#CCCCC#N)(O[C@H](c1ccccc1)c1cn([C@H](C)c2ccccc2)nn1)C(C)C result=-0.348
compound=COCC(=C=CC[C@@H](O)c1cccc(OCCO)c1)C[C@@H](O)COCc1ccccc1 result=1.08
compound="C=CCC(OC(C)=O)[C@@H]1[C@@H](N(Cc2ccc(-c3ccccc3)cc2)C(=O)c2ccc(-c3ccccc3)cc2)c2cc(OCCCO)ccc2N1C(=O)c1ccc2ccccc2n1 (some centres undefined)" result=0.167
compound=CC(C)C(=C=CC[C@@H](O)c1cccc(OCCO)c1)CCO result=0.114
compound="COC(=O)C1=CC(CCCO)=CC(C2CC2)N(Cc2cccc(OC(F)(F)F)c2)C=C1C(=O)OC (centres undefined)" result=0.589
compound=CCOC(=O)C1=CC[C@@H](c2ccc(F)cc2)N(S(=O)(=O)c2ccc(C)cc2)[C@H]1c1ccc([N+](=O)[O-])cc1 result=-0.415
compound="N#Cc1ccc(C(O)C2C=CC3C(=O)N(c4ccccc4)C(=O)C3N2Nc2ccc([N+](=O)[O-])cc2)cc1 (centres undefined)" result=-1.46
compound=CCOC(=O)C[C@H]1[C@H](OC(=O)c2cc3ccccc3oc2=O)[C@@H](NC(=O)C2CCCCC2)c2cc(OCCCO)ccc2N1C(=O)Cc1ccc(OC)cc1 result=0.535
compound=COc1ccc(C#Cc2ccc3c(c2)[C@]2(C(=O)N3)[C@H](C(=O)Nc3nc4ccccc4s3)[C@H]3C(=O)O[C@H](c4ccccc4)[C@H](c4ccccc4)N3[C@@H]2c2ccc(OCCO)cc2)cc1 result=0.183
compound=COC(=O)[C@@]1(Cc2ccc(F)cc2)[C@H]2c3cc(C(=O)N(C)C)n(CCO)c3C[C@H]2CN1C(=O)c1ccccc1 result=-0.173
compound=CC(C)CNC(=O)[C@@H]1c2ccccc2C(=O)N(Cc2ccccc2)[C@H]1c1ccc(CO)cc1 result=0.175
compound=O=C1O[C@@H](c2ccccc2)[C@@H](c2ccccc2)N2[C@@H](c3ccc(O)cc3)[C@]3(C(=O)Nc4ccc(C#CC5=CCCCC5)cc43)[C@@H](C(=O)N3CCCCCCC3)[C@H]12 result=0.967
compound=COCCOC(=O)N1C(=O)[C@@]2(c3cc(C#CCCO)ccc31)[C@H](c1ccccc1OCCO)N1[C@H](c3ccccc3)[C@H](c3ccccc3)OC(=O)[C@H]1[C@@H]2C(=O)N1CCc2cc(OC)c(OC)cc2C1 result=0.251
